Entries and their yeast surface expression
B1: scFv; the commonest letter at each place (parent)
chain 1: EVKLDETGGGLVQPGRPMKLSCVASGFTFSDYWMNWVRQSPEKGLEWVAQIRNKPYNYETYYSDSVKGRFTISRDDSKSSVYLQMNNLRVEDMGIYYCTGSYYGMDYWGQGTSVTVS
chain 2: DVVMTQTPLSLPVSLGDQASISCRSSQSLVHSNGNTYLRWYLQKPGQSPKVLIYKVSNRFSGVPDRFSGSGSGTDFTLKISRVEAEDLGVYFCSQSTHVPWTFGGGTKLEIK

Variants of: B1
Assay method text: yeast surface expression (ratio to wild type); higher = more expressed
Measurement conditions: format: scFv 4-4-20, heavy + light

>>> result("chain 1 V37I")
0.916
>>> result("chain 1 S101E W108H")
0.374
>>> result("chain 1 T28N Y32Q")
1.04
>>> result("chain 1 S101W G109T")
0.212
>>> result("chain 1 W33S W36L")
0.535
>>> result("chain 1 F29M W33C")
0.983
>>> result("chain 1 M105V D106E")
1.02
>>> result("chain 1 D106L W108R G109Y")
0.0998

Input line: Give the measured yeast surface expression for chain 1 Y102W G104H G109I
Output line: 0.0981

Input line: Please list yeast surface expression recorded for the variant chain 1 S101M G104I
Output line: 0.274

Input line: Give the value of yeast surface expression reported for the following: chain 1 G100Y Y107T
Output line: 0.388

Input line: Respond only with yeast surface expression recorded for chain 1 T28E Y32R
Output line: 0.928

Input line: In one line, give reported yeast surface expression of the entry chain 1 M105S D106N .
Output line: 0.443

Input line: Name the recorded yeast surface expression of the item chain 1 Y103G Y107W in your answer.
Output line: 1.21

Input line: Could you please provide reported yeast surface expression for chain 1 D106C W108H ? Thanks!
Output line: 0.583
